Values compiled from ChEMBL document CHEMBL1914445.

biological target: Acetylcholinesterase (Homo sapiens, UniProt P22303); assay: Inhibition of human recombinant AChE using acetylthiocholine as substrate by Ellman's assay
Sequence (P22303 whole entry): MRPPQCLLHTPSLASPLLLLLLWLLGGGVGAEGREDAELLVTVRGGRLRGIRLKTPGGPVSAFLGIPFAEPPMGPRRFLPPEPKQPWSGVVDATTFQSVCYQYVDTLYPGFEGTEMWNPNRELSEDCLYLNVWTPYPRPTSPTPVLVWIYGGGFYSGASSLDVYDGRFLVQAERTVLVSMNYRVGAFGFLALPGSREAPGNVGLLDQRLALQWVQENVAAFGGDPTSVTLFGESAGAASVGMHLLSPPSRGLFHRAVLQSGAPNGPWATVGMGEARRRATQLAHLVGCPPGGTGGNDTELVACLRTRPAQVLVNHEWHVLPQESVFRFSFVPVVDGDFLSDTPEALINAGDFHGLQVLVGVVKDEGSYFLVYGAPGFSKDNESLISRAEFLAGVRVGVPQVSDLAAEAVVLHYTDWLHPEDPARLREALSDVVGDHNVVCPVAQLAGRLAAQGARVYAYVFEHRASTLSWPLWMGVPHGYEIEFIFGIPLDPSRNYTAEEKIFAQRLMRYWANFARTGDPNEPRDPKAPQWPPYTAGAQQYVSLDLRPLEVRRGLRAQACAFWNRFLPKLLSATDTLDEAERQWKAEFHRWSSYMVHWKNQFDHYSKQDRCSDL
Hi there, I'd appreciate the recorded IC50 for every entry that follows.

Reported IC50 ( Cc1ccc(-c2cc3c(N)c4c(nc3o2)CCCC4)cc1 ) = > 100 µM

Reported IC50 ( Nc1c2c(nc3oc(-c4ccc(Cl)cc4)cc13)CCCC2 ) = > 100 µM

Reported IC50 ( Nc1c2c(nc3oc(-c4ccccc4)cc13)CCCC2 ) = > 100 µM

Reported IC50 ( Nc1c2c(nc3c1cc(-c1ccccc1)n3-c1ccccc1)CCCC2 ) = 45.5 µM
